# Assayed Target: HIF-1 (HIF-1alpha/HIF-1beta (ARNT) heterodimer) (Homo sapiens?, UniProt Q16665;P27540 Q16665:1-826,P27540:2-789)
# Sequence (Q16665 whole entry, chain 1 of 2): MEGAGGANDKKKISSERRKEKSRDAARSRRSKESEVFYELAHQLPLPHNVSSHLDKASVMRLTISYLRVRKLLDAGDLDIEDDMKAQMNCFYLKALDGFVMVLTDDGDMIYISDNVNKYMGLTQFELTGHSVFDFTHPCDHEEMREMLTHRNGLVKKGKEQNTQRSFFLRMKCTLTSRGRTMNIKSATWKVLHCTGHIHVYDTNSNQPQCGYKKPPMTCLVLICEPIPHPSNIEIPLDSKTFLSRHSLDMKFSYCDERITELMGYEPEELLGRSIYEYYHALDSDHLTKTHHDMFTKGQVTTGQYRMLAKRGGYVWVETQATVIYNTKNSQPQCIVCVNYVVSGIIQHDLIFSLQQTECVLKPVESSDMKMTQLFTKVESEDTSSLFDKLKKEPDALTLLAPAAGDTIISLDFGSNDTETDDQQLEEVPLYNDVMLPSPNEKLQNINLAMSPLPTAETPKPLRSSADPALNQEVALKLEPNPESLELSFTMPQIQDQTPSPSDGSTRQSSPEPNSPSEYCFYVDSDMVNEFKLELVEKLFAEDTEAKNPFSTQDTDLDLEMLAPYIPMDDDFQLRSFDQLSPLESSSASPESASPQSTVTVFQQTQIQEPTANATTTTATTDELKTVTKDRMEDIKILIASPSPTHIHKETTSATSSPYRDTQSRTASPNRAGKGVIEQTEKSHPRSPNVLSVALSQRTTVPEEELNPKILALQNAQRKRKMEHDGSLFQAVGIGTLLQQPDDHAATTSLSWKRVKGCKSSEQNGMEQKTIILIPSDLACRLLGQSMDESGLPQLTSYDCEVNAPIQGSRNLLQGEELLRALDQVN
# Sequence (P27540 2-789, chain 2 of 2): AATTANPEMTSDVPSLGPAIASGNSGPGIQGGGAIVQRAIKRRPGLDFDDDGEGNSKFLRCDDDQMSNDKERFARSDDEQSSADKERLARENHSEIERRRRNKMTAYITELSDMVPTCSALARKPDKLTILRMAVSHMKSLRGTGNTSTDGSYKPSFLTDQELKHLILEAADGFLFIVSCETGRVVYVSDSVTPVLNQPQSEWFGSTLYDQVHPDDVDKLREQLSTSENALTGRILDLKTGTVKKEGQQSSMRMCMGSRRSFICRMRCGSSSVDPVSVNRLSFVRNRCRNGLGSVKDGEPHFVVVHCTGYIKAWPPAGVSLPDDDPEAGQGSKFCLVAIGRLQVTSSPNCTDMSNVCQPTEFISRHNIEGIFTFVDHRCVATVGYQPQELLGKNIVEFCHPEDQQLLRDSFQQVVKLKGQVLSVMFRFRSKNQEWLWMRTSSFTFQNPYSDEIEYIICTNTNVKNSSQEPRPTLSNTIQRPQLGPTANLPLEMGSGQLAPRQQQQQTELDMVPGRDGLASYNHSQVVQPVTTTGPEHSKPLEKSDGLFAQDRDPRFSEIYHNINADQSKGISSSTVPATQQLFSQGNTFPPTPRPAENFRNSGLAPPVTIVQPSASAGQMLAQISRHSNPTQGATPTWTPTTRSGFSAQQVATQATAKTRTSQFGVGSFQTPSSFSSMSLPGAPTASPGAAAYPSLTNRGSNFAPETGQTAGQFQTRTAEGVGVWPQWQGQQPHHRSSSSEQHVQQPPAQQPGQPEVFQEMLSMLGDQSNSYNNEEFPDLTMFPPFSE
# Assay Name: competition; TransAM
# Conditions Used: protein: extract; tags: none (endogenous, nuclear extract)
Listed below: binding signal values for each entry.

decoy 969 (dsDNA) DNA 1: CCAGGGTACGTGCCTCAGG DNA 2: CCTGAGGCACGTACCCTGG	1.67 ratio
decoy 861/862 (dsDNA) DNA 1: CTAATACGTGCCGCTG DNA 2: CAGCGGCACGTATTAG	2.18 ratio
decoy 843/844 (dsDNA) DNA 1: GTGCATACGTGGGCTCCA DNA 2: TGGAGCCCACGTATGCAC	1.7 ratio
decoy 821/822 (dsDNA) DNA 1: CGCGAGCGTACGTGCCTCAGG DNA 2: CCTGAGGCACGTACGCTCGCG	1.33 ratio
decoy 871/872 (dsDNA) DNA 1: ACCGTACGTGCTGCCA DNA 2: TGGCAGCACGTACGGT	2.21 ratio

Note: attention shifts to another entry.
Task item: Please report the recorded binding signal for decoy 937 (dsDNA) DNA 1: CCAGCGTAGGTGCCTCAGG DNA 2: CCTGAGGCACCTACGCTGG .
Reply: 2.49 ratio
